Numbers sourced from the supplement of paper PMC5919970.

- System: TYKNU
- METHOD NOTES: fractional viability relative to vehicle; TYKNU is a high-grade serous ovarian cancer line; higher = less growth inhibition
- EXPERIMENTAL SETUP: 2uM; 72 h; genotype: OPA1 knockout (sgOPA1 #2)
Whole data set: some 2,000 compounds, median “fractional viability relative to vehicle” near 0.92, cut for the lowest 2% near 0.11. The full list was thinned out, with the lowest values kept by preference.
# fractional viability listing for each entry below

# COMPOUND, TARGET OR SYSTEM, fractional viability
records = [
    ("CCN(CC)CCCC(C)Nc1nc(C)cc(Nc2ccc3nc(C)cc(N)c3c2)n1 (stereo not given)", "TYKNU", 0.891),
    ("C=CC(=O)Nc1cccc(Nc2nc(Nc3ccc(N4CCN(C(C)=O)CC4)cc3OC)ncc2C(F)(F)F)c1", "TYKNU", 0.781),
    ("O=C(O)C(Cc1c[nH]c2ccccc12)N1C(=O)c2ccccc2C1=O (stereo not given)", "TYKNU", 0.905),
    ("CC(C)c1nc(N(C)S(C)(=O)=O)nc(-c2ccc(F)cc2)c1/C=C/[C@@H](O)C[C@@H](O)CC(=O)O", "TYKNU", 1.06),
    ("COc1ccc(C2=N[C@@H](c3ccc(Cl)cc3)[C@@H](c3ccc(Cl)cc3)N2C(=O)N2CCNC(=O)C2)c(OC(C)C)c1 [Nutlin-3a]", "TYKNU", 0.481),
    ("CCc1cccc(CC)c1NC(=O)N1Cc2[nH]nc(NC(=O)c3ccc(N4CCN(C)CC4)cc3)c2C1", "TYKNU", 1.02),
    ("C=CC(=O)Nc1cccc(C)c1Nc1ncc2cc(-c3c(Cl)c(OC)cc(OC)c3Cl)ccc2n1", "TYKNU", 0.676),
    ("N#Cc1c(NC(=O)c2cccc3ccccc23)sc2c1CCCC2", "TYKNU", 0.428),
    ("CC1(C)CC(=O)c2c(C(F)(F)F)nn(-c3ccc(C(N)=O)c(N[C@H]4CC[C@H](O)CC4)c3)c2C1", "TYKNU", 0.668),
    ("CC(C)(Cc1ccc2ccccc2c1)NC[C@@H](O)COc1cccc(Cl)c1C#N", "TYKNU", 1.06),
]
